- measuredTarget: Sterol O-acyltransferase 2 (Homo sapiens, UniProt O75908)
- Sequence (O75908 whole entry): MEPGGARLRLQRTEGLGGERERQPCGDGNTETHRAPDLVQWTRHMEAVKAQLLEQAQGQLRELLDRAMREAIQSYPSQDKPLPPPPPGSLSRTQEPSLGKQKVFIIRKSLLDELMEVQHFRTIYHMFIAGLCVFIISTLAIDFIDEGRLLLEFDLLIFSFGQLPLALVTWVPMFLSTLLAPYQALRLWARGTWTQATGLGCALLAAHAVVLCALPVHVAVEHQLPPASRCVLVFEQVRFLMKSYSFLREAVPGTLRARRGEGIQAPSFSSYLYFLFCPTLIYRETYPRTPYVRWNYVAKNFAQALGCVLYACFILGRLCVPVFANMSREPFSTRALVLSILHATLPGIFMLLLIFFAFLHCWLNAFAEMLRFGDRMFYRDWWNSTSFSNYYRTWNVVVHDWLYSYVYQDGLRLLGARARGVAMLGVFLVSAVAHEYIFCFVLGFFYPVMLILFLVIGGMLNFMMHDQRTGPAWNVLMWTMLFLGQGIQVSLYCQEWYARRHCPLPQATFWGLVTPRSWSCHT
pIC50: −log10 of the molar value.
Rule: pIC50 of 5 or more gives Met; anything lower gives Not met.

These solved cases illustrate the format of a correct answer.
molecule	classification
CC(C)c1cccc(C(C)C)c1NC(=O)CC(=O)C(Cc1ccccc1)Cc1ccc(OC(=O)CCCCCCN2CCCCCC2=O)cc1 (stereo not given)	Met
CCCCCCCCCCNc1cc(-c2ccccc2)nn1-c1ccccc1	Not met
CCCC[C@H](C)[C@@H]1CC(=O)N[C@@H](Cc2ccccc2)C(=O)N[C@@H](C)C(=O)N[C@H](CC(C)C)C(=O)O1 [BEAUVERIOLIDE I]	Not met
CCCCCCCCC(=O)CNc1cc(-c2ccccc2)nn1-c1ccccc1	Not met

Then this molecule:
[in] Identify whether the reported pIC50 of the following molecule is 5 or greater: CC(C)c1cccc(C(C)C)c1NC(=O)CC(=O)C(Cc1ccccc1)Cc1ccc(O)cc1 (stereo not given)
[out] Met
